Each recorded value in this set is attributed to patent US20220290111A1.

test system: recombinant PipSyn2; assay: in vitro enzyme assay of amide formation from CoA-ester and amine, PipSyn2; format: biochemical, Piper nigrum; conditions: PipSyn2; CoA-ester 3,4-methylenedioxycinnamoyl-CoA; 100% = 2 nkat/mg PipSyn2 with piperoyl-CoA and piperidine; UV quantification
READOUT NAME: relative activity, 3,4-methylenedioxycinnamoyl-CoA (%)

# CHEMICAL STRING, TESTED TARGET, UNITS LABEL, VALUE OBSERVED
measured = [
    ("CC(C)CN", "recombinant PipSyn2", "%", 2),
    ("C1CCNC1", "recombinant PipSyn2", "%", 3),
    ("NCC1CCNCC1", "recombinant PipSyn2", "%", 7),
    ("C1CCNCC1", "recombinant PipSyn2", "%", 38),
]
